Record form. Attribute: Average (percentage cell inhibition), Dmastoparan MDA-MB231 12.5uM. Fill in for each entry.
Only the number, expressed in %, is required.

Tell me reported Average (percentage cell inhibition), Dmastoparan MDA-MB231 12.5uM for CC[C@H](C)[C@H](N)C(=O)N[C@@H](CC(N)=O)C(=O)N[C@@H](CC(C)C)C(=O)N[C@@H](CCCCN)C(=O)N[C@@H](C)C(=O)N[C@@H](CC(C)C)C(=O)N[C@@H](C)C(=O)N[C@@H](C)C(=O)N[C@@H](CC(C)C)C(=O)N[C@@H](C)C(=O)N[C@@H](CCCCN)C(=O)N[C@@H](Cc1c[nH]cn1)C(=O)N[C@H](C(=O)N[C@@H](CC(C)C)C(N)=O)[C@@H](C)CC [H12] , tested with MDA-MB-231 cells.
31.16

Tell me reported Average (percentage cell inhibition), Dmastoparan MDA-MB231 12.5uM for CC[C@H](C)[C@H](N)C(=O)N[C@@H](CC(N)=O)C(=O)N[C@@H](CC(C)C)C(=O)N[C@@H](CCCCN)C(=O)N[C@@H](C)C(=O)N[C@@H](CC(C)C)C(=O)N[C@@H](C)C(=O)N[C@@H](C)C(=O)N[C@H](C(=O)N[C@@H](C)C(=O)N[C@@H](CCCCN)C(=O)N[C@@H](CCCCN)C(=O)N[C@H](C(=O)N[C@@H](CC(C)C)C(N)=O)[C@@H](C)CC)[C@@H](C)CC [I9] , tested with MDA-MB-231 cells.
25.9927

Tell me reported Average (percentage cell inhibition), Dmastoparan MDA-MB231 12.5uM for CC[C@H](C)[C@H](N)C(=O)N[C@@H](CC(N)=O)C(=O)N[C@@H](CC(C)C)C(=O)N[C@@H](CCCCN)C(=O)N[C@@H](C)C(=O)N[C@@H](CCCCN)C(=O)N[C@@H](C)C(=O)N[C@@H](C)C(=O)N[C@@H](CC(C)C)C(=O)N[C@@H](C)C(=O)N[C@@H](CCCCN)C(=O)N[C@@H](CCCCN)C(=O)N[C@H](C(=O)N[C@@H](CC(C)C)C(N)=O)[C@@H](C)CC [K6] , tested with MDA-MB-231 cells.
7.2133

Tell me reported Average (percentage cell inhibition), Dmastoparan MDA-MB231 12.5uM for CC[C@H](C)[C@H](N)C(=O)N[C@@H](CCC(N)=O)C(=O)N[C@@H](CC(C)C)C(=O)N[C@@H](CCCCN)C(=O)N[C@@H](C)C(=O)N[C@@H](CC(C)C)C(=O)N[C@@H](C)C(=O)N[C@@H](C)C(=O)N[C@@H](CC(C)C)C(=O)N[C@@H](C)C(=O)N[C@@H](CCCCN)C(=O)N[C@@H](CCCCN)C(=O)N[C@H](C(=O)N[C@@H](CC(C)C)C(N)=O)[C@@H](C)CC [Q2] , tested with MDA-MB-231 cells.
33.3572

Tell me reported Average (percentage cell inhibition), Dmastoparan MDA-MB231 12.5uM for CC[C@H](C)[C@H](N)C(=O)N[C@@H](CC(N)=O)C(=O)N[C@@H](CC(C)C)C(=O)N[C@@H](CCCCN)C(=O)N[C@@H](C)C(=O)N[C@@H](CC(C)C)C(=O)N[C@@H](C)C(=O)N[C@@H](C)C(=O)N[C@@H](C)C(=O)N[C@@H](C)C(=O)N[C@@H](CCCCN)C(=O)N[C@@H](CCCCN)C(=O)N[C@H](C(=O)N[C@@H](CC(C)C)C(N)=O)[C@@H](C)CC [A9] , tested with MDA-MB-231 cells.
23.1985

Tell me reported Average (percentage cell inhibition), Dmastoparan MDA-MB231 12.5uM for CC[C@H](C)[C@H](N)C(=O)N[C@@H](CC(N)=O)C(=O)N[C@@H](CC(C)C)C(=O)N[C@@H](CCCCN)C(=O)N[C@@H](C)C(=O)N[C@@H](CCC(N)=O)C(=O)N[C@@H](C)C(=O)N[C@@H](C)C(=O)N[C@@H](CC(C)C)C(=O)N[C@@H](C)C(=O)N[C@@H](CCCCN)C(=O)N[C@@H](CCCCN)C(=O)N[C@H](C(=O)N[C@@H](CC(C)C)C(N)=O)[C@@H](C)CC [Q6] , tested with MDA-MB-231 cells.
-10.4473

Tell me reported Average (percentage cell inhibition), Dmastoparan MDA-MB231 12.5uM for CC[C@H](C)[C@H](N)C(=O)N[C@@H](CC(N)=O)C(=O)N[C@@H](CC(C)C)C(=O)N[C@@H](CCCCN)C(=O)N[C@@H](C)C(=O)N[C@@H](CC(C)C)C(=O)N[C@@H](C)C(=O)N[C@@H](C)C(=O)N[C@@H](CC(C)C)C(=O)N[C@@H](C)C(=O)N[C@@H](CCCCN)C(=O)N[C@@H](CCCCN)C(=O)N[C@H](C(=O)N[C@@H](CC(N)=O)C(N)=O)[C@@H](C)CC [N14] , tested with MDA-MB-231 cells.
-1.851

Tell me reported Average (percentage cell inhibition), Dmastoparan MDA-MB231 12.5uM for CC[C@H](C)[C@H](N)C(=O)N[C@@H](CC(N)=O)C(=O)N[C@@H](CC(C)C)C(=O)N[C@@H](CCCCN)C(=O)N[C@@H](C)C(=O)N[C@@H](CC(C)C)C(=O)N[C@@H](CC(C)C)C(=O)N[C@@H](C)C(=O)N[C@@H](CC(C)C)C(=O)N[C@@H](C)C(=O)N[C@@H](CCCCN)C(=O)N[C@@H](CCCCN)C(=O)N[C@H](C(=O)N[C@@H](CC(C)C)C(N)=O)[C@@H](C)CC [L7] , tested with MDA-MB-231 cells.
74.1173

Tell me reported Average (percentage cell inhibition), Dmastoparan MDA-MB231 12.5uM for CC[C@H](C)[C@H](N)C(=O)N[C@@H](CC(N)=O)C(=O)N[C@@H](CC(C)C)C(=O)N[C@@H](CCCCN)C(=O)N[C@@H](C)C(=O)N[C@@H](CC(C)C)C(=O)N[C@@H](C)C(=O)N[C@@H](C)C(=O)N[C@@H](Cc1c[nH]cn1)C(=O)N[C@@H](C)C(=O)N[C@@H](CCCCN)C(=O)N[C@@H](CCCCN)C(=O)N[C@H](C(=O)N[C@@H](CC(C)C)C(N)=O)[C@@H](C)CC [H9] , tested with MDA-MB-231 cells.
18.6976

Tell me reported Average (percentage cell inhibition), Dmastoparan MDA-MB231 12.5uM for CC[C@H](C)[C@H](N)C(=O)N[C@@H](CC(N)=O)C(=O)N[C@@H](CC(C)C)C(=O)N[C@@H](CCCCN)C(=O)N[C@@H](C)C(=O)N[C@@H](CC(C)C)C(=O)N[C@@H](C)C(=O)N[C@@H](C)C(=O)N[C@@H](CC(C)C)C(=O)N[C@@H](C)C(=O)N[C@@H](CCCCN)C(=O)N[C@@H](CCC(=O)O)C(=O)N[C@H](C(=O)N[C@@H](CC(C)C)C(N)=O)[C@@H](C)CC [E12] , tested with MDA-MB-231 cells.
21.4723

Tell me reported Average (percentage cell inhibition), Dmastoparan MDA-MB231 12.5uM for CC[C@H](C)[C@H](N)C(=O)N[C@@H](CC(N)=O)C(=O)N[C@@H](CC(C)C)C(=O)N[C@@H](CCCCN)C(=O)N[C@@H](C)C(=O)N[C@@H](CC(C)C)C(=O)N[C@@H](C)C(=O)N[C@@H](C)C(=O)N[C@@H](CC(C)C)C(=O)N[C@@H](C)C(=O)N[C@@H](CCCCN)C(=O)N[C@H](C(=O)N[C@H](C(=O)N[C@@H](CC(C)C)C(N)=O)[C@@H](C)CC)[C@@H](C)CC [I12] , tested with MDA-MB-231 cells.
44.3343

From: paper PMC12748989
